The measurements presented in this section are drawn from patent US20210087268A1.

- SYSTEM UNDER TEST: T1, mouse TIGIT-Fc (rmTIGIT-Fc, R&D Systems) (mouse, UniProt P86176 29-148, limits assumed)
- T1 construct: Bought protein; also called mouse TIGIT (rmTIGIT-Fc); not shown: Fc part of the bought fusion protein
- T1 sequence (looked up): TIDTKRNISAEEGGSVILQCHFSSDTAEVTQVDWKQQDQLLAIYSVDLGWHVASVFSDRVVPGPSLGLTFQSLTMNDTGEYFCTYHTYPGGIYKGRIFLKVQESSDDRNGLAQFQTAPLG
- ASSAY REMARKS: SPR (BIAcore T200), antibody immobilised on CM5 chip, TIGIT-Fc flowed
OBSERVED PROPERTY: Kd (nM)
One number for each entry, in nM.

Check out these entries, answers already filled in.
BINDER	OBSERVED PROPERTY	RESULT
S64-39-IgG4 (antibody, V domains shown, also called 564-39-IgG4 [sic]) VH: EVQLLESGGGLVQPGGSLRLSCAASGFTFSNYAMSWVRQAPGKGLEWVSGISPSGSSIYYADSVQGRFTISRDNSKNTLYLQMNSLRAEDTAVYYCAKAIRTCSLSHCYYYYGMDVWGQGTLVTVSS VL: QSVLTQPPSASGTPGQRVTISCSSSSSNIGSNAVNWYQQLPGTAPKLLIYYDNQRPSGVPDRFSGSKSGTSASLAISGLRSEDEADYYCATWDYSLSGYVFGGGTKLTVL	Kd	3.12
10A7 antibody (antibody, V domains shown) VH: EVQLVESGGGLTQPGKSLKLSCEASGFTFSSFTMHWVRQSPGKGLEWVAFIRSGSGIVFYADAVRGRFTISRDNAKNLLFLQMNDLKSEDTAMYYCARRPLGHNTFDSWGQGTLVTVSS VL: DIVMTQSPSSLAVSPGEKVTMTCKSSQSLYYSGVKENLLAWYQQKPGQSPKLLIYYASIRFTGVPDRFTGSGSGTDYTLTITSVQAEDMGQYFCQQGINNPLTFGDGTKLEIKR	Kd	0.182
F04-10-IgG1 (antibody, V domains shown, also called antibody based on the F04-10 clones) VH: EVQLLESGGGLVQPGGSLRLSCAASGFTFSSYYMSWVRQAPGKGLEWVSSIGSGSPSSTYYADSVKGRFTISRDNSKNTLYLQMNSLRAEDTAVYYCARSSYSGGNGYYYYAYAFDYWGQGTLVTVSS VL: EIVLTQSPGTLSLSPGERATLSCRASQSVSSSYLAWYQQKPGQAPRLLIYGASSRATGIPDRFSGSGSGTDFTLTISRLEPEDFAVYYCQQGYHRYATFGQGTKVEIK	Kd	0.245

API: the following record is the query input.
binder S64-39-IgG1 (antibody, V domains shown, also called 564-39-IgG1 [sic]; antibody based on the S64-39 clones) VH: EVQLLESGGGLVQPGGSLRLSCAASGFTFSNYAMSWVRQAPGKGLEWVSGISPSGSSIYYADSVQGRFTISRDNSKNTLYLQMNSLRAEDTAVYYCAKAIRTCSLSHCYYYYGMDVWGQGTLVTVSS VL: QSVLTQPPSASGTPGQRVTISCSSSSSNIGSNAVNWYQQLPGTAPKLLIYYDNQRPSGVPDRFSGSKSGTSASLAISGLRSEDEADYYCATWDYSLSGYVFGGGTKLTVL , Kd observed: 3.2
